# Assay name: Inhibition of melanin synthesis in NHEM cells assessed as [14C]thiouracil incorporation after 72 hrs by liquid scintillation counting
# Assay type: functional, cell-based, Homo sapiens
# Condition summary: Homo sapiens, NHEM, 72 h
List of pIC50 values.
Scale note: pIC50 = -log10(concentration in M).

These recorded examples may help you get a feel for the data.
structure=COc1cc2c(c(CC=C(C)C)c1O)O[C@H]1c3ccc(O)cc3OC[C@@H]21 test_value=5.22
structure=CC(C)=CCc1c(O)c2c(c3c1OC(C)(C)C=C3)O[C@H](c1ccc(O)cc1)CC2=O test_value=5.08
structure=COc1ccc(C[C@H](O)C(=O)c2cc(CC=C(C)C)c(O)cc2O)cc1 test_value=4.55

Shift focus to the following entry.
Q. Entry under review: "CC(C)=CCc1cc([C@@H]2CC(=O)c3c(O)c(CC=C(C)C)c(O)c(CC=C(C)C)c3O2)c(O)cc1O" . Reported pIC50?
A. 5.11

###

# Assay name: Inhibition of melanin synthesis in NHEM cells assessed as [14C]thiouracil incorporation after 72 hrs by liquid scintillation counting
# Assay type: functional, cell-based, Homo sapiens
# Condition summary: Homo sapiens, NHEM, 72 h
List of pIC50 values.
Scale note: pIC50 = -log10(concentration in M).

These recorded examples may help you get a feel for the data.
compound=CC(C)=CCc1cc(C(=O)[C@@H](O)Cc2ccc(O)cc2)c(O)c(CC=C(C)C)c1O measurement_name=pIC50 test_value=4.66
compound=COc1c(O)cc2c(c1CC=C(C)C)O[C@H]1c3cc(CC=C(C)C)c(O)cc3OC[C@@H]21 measurement_name=pIC50 test_value=5.68
compound=COc1ccc([C@@H]2CC(=O)c3ccc(O)c(CC=C(C)C)c3O2)cc1 measurement_name=pIC50 test_value=5.41
compound=CC(C)=CCc1cc2c(cc1O)O[C@H](c1ccc(O)cc1)CC2=O measurement_name=pIC50 test_value=5.57
compound=CC(C)=CCc1cc2c(cc1O)OC[C@H]1c3ccc4c(c3O[C@@H]21)C=CC(C)(C)O4 measurement_name=pIC50 test_value=5.74
compound=COc1cc2c(cc1C(=O)[C@@H](O)Cc1ccc(O)cc1)C=CC(C)(C)O2 measurement_name=pIC50 test_value=5.42
compound=CC(C)=CCc1cc2c(cc1O)OC[C@H]1c3cc(O)c4c(c3O[C@@H]21)C=CC(C)(C)O4 measurement_name=pIC50 test_value=5.54
compound=COc1c(C)cc2c(c1CC=C(C)C)O[C@H]1c3ccc(O)cc3OC[C@@H]21 measurement_name=pIC50 test_value=5.21
compound=COc1cc2c(CO)c(-c3ccc(O)cc3O)oc2c(CC=C(C)C)c1O measurement_name=pIC50 test_value=5.08
compound=CC(C)=CCc1c(O)ccc2c1O[C@H]1c3ccc(O)c(CC=C(C)C)c3OC[C@@H]21 measurement_name=pIC50 test_value=5.42

Q. Entry under review: "CC(C)=CCc1cc([C@@H]2CC(=O)c3c(cc(O)c(CC=C(C)C)c3O)O2)ccc1O" . Reported pIC50?
A. 5.59

Q. Entry under review: Oc1ccc(O)cc1 [HYDROQUINONE] . Reported pIC50?
A. 5.66

Q. Entry under review: "COc1c(O)cc2c(c1CC=C(C)C)O[C@H]1c3c(cc(O)c(CC=C(C)C)c3OC)OC[C@@H]21" . Reported pIC50?
A. 5.69

Q. Entry under review: "CC(C)=CCc1cc([C@@H]2CC(=O)c3c(O)c(CC=C(C)C)c(O)c(CC=C(C)C)c3O2)cc(O)c1O" . Reported pIC50?
A. 5.44

Q. Entry under review: "COc1cc(O)ccc1[C@@H]1CC(=O)c2c(O)cc3c(c2O1)C=CC(C)(C)O3" . Reported pIC50?
A. 5.31

Q. Entry under review: "CC(C)=CCc1cc2c(c(CC=C(C)C)c1O)O[C@H](c1ccc(O)cc1)[C@@H](O)C2=O" . Reported pIC50?
A. 5.66
